Entry source: patent US10214531B2

Target: recombinant human AMCase (Homo sapiens, UniProt Q9BZP6)
Sequence (Q9BZP6 22-476): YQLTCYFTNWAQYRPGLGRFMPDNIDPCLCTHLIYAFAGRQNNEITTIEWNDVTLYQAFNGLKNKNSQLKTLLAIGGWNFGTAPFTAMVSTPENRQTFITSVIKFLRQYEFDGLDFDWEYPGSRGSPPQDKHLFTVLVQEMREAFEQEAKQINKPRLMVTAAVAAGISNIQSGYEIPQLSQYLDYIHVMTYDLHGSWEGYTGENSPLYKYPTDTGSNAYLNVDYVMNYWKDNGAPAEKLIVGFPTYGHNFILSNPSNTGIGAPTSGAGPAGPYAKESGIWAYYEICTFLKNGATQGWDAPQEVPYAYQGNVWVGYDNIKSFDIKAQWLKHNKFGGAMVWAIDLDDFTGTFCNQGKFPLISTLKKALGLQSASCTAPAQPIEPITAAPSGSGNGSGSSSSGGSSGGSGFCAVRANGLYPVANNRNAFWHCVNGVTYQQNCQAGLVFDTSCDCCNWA
Test: Human AMCase Activity Assay
Conditions: recombinant hAMCase, 4-methylumbelliferyl chitobioside substrate, citrate buffer pH 5.2, 37° C., 60 minutes; read-out: Activity (IC50 value key)
Description: Human AMCase Activity Assay The assay was run in the 96-well plate format, each reaction in the total volume of 100 μl. 4-Methylumbelliferyl B-D-N,N′ diacetylchitobioside hydrate was used as a substrate for the enzyme. Upon hydrolysis by AMCase, the substrate releases 4-methylumbelliferyl (4MU), when ionized in basic pH, emits fluorescence of 460 nm. Briefly, 40 μl of a substrate was added to each well, followed by 10 μl of compound dilution and 50 μl of hAMCase recombinant enzyme solution. […]
pIC50: −log10 of the molar value. Where a name gives a salt, the structure may show the parent alone.
pIC50 listing for selected molecules.

molecule | pIC50
Nc1n[nH]c(N2CCC(c3nc(-c4ccc5c(c4)OCO5)no3)CC2)n1 [Example 41] | < 4.00
Nc1n[nH]c(N2CCN(C(=O)[C@H](O)Cc3ccc(Cl)cc3)CC2)n1 [Example 72] | < 4.00
Cc1ccc(C)c(OC(C)C(=O)N2CCN(c3nc(N)n[nH]3)CC2)c1 (centres unmarked) [Example 34] | < 4.00
Cn1nc(N2CCN(CCOc3ccc(Br)cc3)CC2)nc1N [Example 27-1] | < 4.00
CC1CN(c2nc(N)n[nH]2)CCC1N(C)CCc1ccc(Cl)cc1 (centres unmarked) [Example 154, dihydrochloride] | 6.00 to 7.00
CC(Oc1cccc(F)c1F)C(=O)N1CCN(c2nc(N)n[nH]2)CC1 (centres unmarked) [Example 37] | < 4.00
Nc1n[nH]c(N2CCC(CNC(=O)c3cccc(Br)c3)CC2)n1 [Example 69] | < 4.00
Nc1nc(N2CCC(N(CCc3ccc(Cl)cc3)Cc3cccc(Cl)c3)CC2)n[nH]1 [Example 110, dihydrochloride] | > 7.00
CCN(C1CCN(c2nc(N)n[nH]2)CC1)S(=O)(=O)Cc1cccc(Cl)c1 [Example 238] | 6.00 to 7.00
CS(=O)(=O)c1ccc(-c2noc(C3CCN(c4nc(N)n[nH]4)CC3)n2)cc1 [Example 42] | < 4.00
COc1ccccc1CCN(C)C1CCN(c2nc(N)n[nH]2)CC1 [Example 172] | 4.00 to 5.00
Nc1n[nH]c(N2CCN(CCCc3ccc(Cl)cc3)C(CO)C2)n1 (centres unmarked) [Example 66] | 4.00 to 5.00
Nc1n[nH]c(N2CCN(C(=O)[C@@H](N)Cc3ccc(Cl)cc3Cl)CC2)n1 [Example 75-1, dihydrochloride] | < 4.00
Nc1n[nH]c(N2CCC(N(CCc3ccc(Cl)cc3)CC(F)(F)F)CC2)n1 [Example 186, hydrochloride] | 4.00 to 5.00
C[C@@H](Oc1ccc(Cl)cc1)C(=O)N1CCN(c2nc(N)n[nH]2)CC1 [Example 9] | < 4.00
CN(C1CCN(c2nc(N)n[nH]2)CC1)C1CCc2ccccc2C1 (centres unmarked) [Example 250, dihydrochloride] | < 4.00
C[C@H](c1ccccc1)N(CCc1ccc(Cl)cc1)C1CCN(c2nc(N)n[nH]2)CC1 [Example 118] | > 7.00

---

biological target: recombinant human AMCase (Homo sapiens, UniProt Q9BZP6); experiment: Human AMCase Activity Assay; assay type: biochemical; details: recombinant hAMCase, 4-methylumbelliferyl chitobioside substrate, citrate buffer pH 5.2, 37° C., 60 minutes; read-out: Activity (IC50 value key)
Counter-ions that a name gives are not always drawn.
measured_property: IC50

compound | val
C[C@H](CN1CCN(c2nc(N)n[nH]2)CC1)Oc1ccc(Br)cc1 [Example 90] | 0.1 to 1 µM
CC(=O)OCCCC1CN(c2nc(N)n[nH]2)CCN1CCCc1ccc(Br)cc1 (centres unmarked) | 0.1 to 1 µM
Cc1ccccc1OC(C)C(=O)N1CCN(c2nc(N)n[nH]2)CC1 (centres unmarked) | > 100 µM
Nc1n[nH]c(N2CCC(N(CCc3ccc(Br)cc3)Cc3ccc(F)c4ccccc34)CC2)n1 | < 0.1 µM
CC(C)(O)CCC1CN(c2nc(N)n[nH]2)CCN1CCCc1ccc(Br)cc1 (centres unmarked) | 1 to 10 µM
C[C@@H](CN1CCN(c2nc(N)n[nH]2)CC1)Oc1ccc(Br)cc1 | 0.1 to 1 µM
CC(=O)NC(CC(=O)N1CCN(c2nc(N)n[nH]2)CC1)c1cccc(F)c1 (centres unmarked) | > 100 µM
Nc1n[nH]c(N2CCN(CCOc3ccccc3-c3ccccc3)CC2)n1 | 10 to 100 µM
CCC(CN1CCN(c2nc(N)n[nH]2)CC1)Oc1ccc(Cl)cc1 (centres unmarked) [Example 63] | 10 to 100 µM
C[C@H](Oc1ccc(Br)cc1)C(=O)N1CCN(c2nc(N)n[nH]2)CC1 | > 100 µM
CC1(C(=O)NCc2ccc(Cl)cc2)CCN(c2nc(N)n[nH]2)CC1 | > 100 µM
Nc1n[nH]c(N2CCN(C(=O)COc3ccc4ccccc4c3)CC2)n1 | > 100 µM
CC(CNC1CCN(c2nc(N)n[nH]2)CC1)c1ccc(Cl)cc1 (centres unmarked) | 10 to 100 µM
Nc1n[nH]c(N2CCC(NCCc3ccc(Br)cc3)CC2)n1 | 1 to 10 µM
Nc1n[nH]c(N2CCC(N(CCc3ccc(Cl)cc3)Cc3ccncc3)CC2)n1 | < 0.1 µM
Nc1n[nH]c(N2CCC(CNC(=O)c3cc(Cl)cc(Cl)c3)CC2)n1 | > 100 µM
Nc1n[nH]c(N2CCC(N(CCc3ccc(Cl)cc3)Cc3ccc(F)c4ccccc34)CC2)n1 | < 0.1 µM
CCC(CN1CCN(c2nc(N)n[nH]2)CC1)Oc1ccc(Br)cc1 (centres unmarked) | 10 to 100 µM
COc1ccc(OCCN2CCN(c3nc(N)n[nH]3)CC2)cc1 | 10 to 100 µM
CN(Cc1nc2ccccc2[nH]1)C1CCN(c2nc(N)n[nH]2)CC1 | > 100 µM
Nc1n[nH]c(N2CCC(CNC(=O)c3ccc(F)c(F)c3)CC2)n1 | > 100 µM
Cc1ccccc1CCN(C)C1CCN(c2nc(N)n[nH]2)CC1 | 10 to 100 µM
CC(CN(C)C1CCN(c2nc(N)n[nH]2)CC1)c1ccc(Cl)cc1 (centres unmarked) [Example 140, dihydrochloride] | 10 to 100 µM
N#Cc1ccc(CN(CCc2ccc(Cl)cc2)C2CCN(c3nc(N)n[nH]3)CC2)cc1 | < 0.1 µM
CN(C)C(Cc1ccc(Cl)cc1Cl)C(=O)N1CCN(c2nc(N)n[nH]2)CC1 (centres unmarked) | > 100 µM
Nc1n[nH]c(N2CCC(C(=O)NCc3ccc(F)c(C(F)(F)F)c3)CC2)n1 | > 100 µM
COc1ccc(CNC(=O)C2CCN(c3nc(N)n[nH]3)CC2)cc1 | > 100 µM
CN(CCc1ccccc1C(F)(F)F)C1CCN(c2nc(N)n[nH]2)CC1 | 1 to 10 µM
CC(=O)NC(CC(=O)N1CCN(c2nc(N)n[nH]2)CC1)c1ccc(F)cc1 (centres unmarked) | > 100 µM
Nc1n[nH]c(N2CCC(N(CCc3ccc(Cl)cc3)Cc3ccc(Cl)c(C(F)(F)F)c3)CC2)n1 | < 0.1 µM
Nc1n[nH]c(N2CCC(NS(=O)(=O)Cc3ccc(Cl)cc3)CC2)n1 [Example 14, dihydrochloride] | 1 to 10 µM
CN(CCc1ccc(Br)cc1)C1CCN(c2nc(N)n(C)n2)CC1 | > 100 µM
Nc1n[nH]c(N2CCC(CNC(=O)Nc3cccc(Cl)c3)CC2)n1 | > 100 µM
Nc1n[nH]c(N2CCC(C(=O)NCc3ccc(F)cc3C(F)(F)F)CC2)n1 | > 100 µM
Nc1n[nH]c(N2CCC(C(=O)NCc3cccc4ccccc34)CC2)n1 | > 100 µM
